TEST: solvent given as SMILES
CONDITION_DETAILS: in CC#N
VALUE_KIND: absorption maximum (nm)
The reply should contain only the number, in nm.

Example entries and their recorded answers appear below.
COc1ccc(-c2c(-c3ccc(OC)cc3)c3c4c(cccc4c2-c2ccccc2)C(=O)c2ccccc2-3)cc1; 402
O=C1c2ccccc2NC(c2ccccc2)N1Cc1ccccc1 (stereo not given); 337
CC1=[N+]2C(=C(C3=CC4OCCOCCOCCOCCOC4C=C3)c3c4ccccc4c(/C=C/c4ccc(N(C)C)cc4)n3[B-]2(F)F)c2ccccc21 (stereo not given); 693

Query: Given CCC1=C(C)C2=Cc3ccccc3B(O)N2C1=O , respond with its absorption maximum.
Response: 358

Query: Given CC1CC=C(c2ccc(-c3ccc(C#N)s3)s2)CC1 (stereo not given) , respond with its absorption maximum.
Response: 355

Query: Given C1=Cc2ccccc2Cc2ccccc21 , respond with its absorption maximum.
Response: 285

Query: Given CCCn1c2cccc3oc4cccc5c4[c+](c32)c2c1cccc2n5CCC , respond with its absorption maximum.
Response: 557

Query: Given Cc1ccc2nc(/C=C/c3ccc(N(C)C)cc3)c(-c3ccccc3)nc2c1 , respond with its absorption maximum.
Response: 433

Query: Given O=C1Nc2ccccc2/C1=C/C(=O)c1ccc(Cl)cc1 , respond with its absorption maximum.
Response: 332

###

TEST: solvent given as SMILES
CONDITION_DETAILS: in CCCCOCCCC
VALUE_KIND: absorption maximum (nm)
The reply should contain only the number, in nm.

Example entries and their recorded answers appear below.
Clc1nc(Nc2ccccc2)nc(Nc2ccc3cc4ccccc4cc3c2)n1; 398
COc1nc(Nc2ccc3c4c(cccc24)C(=O)c2ccccc2-3)nc(OC)n1; 421.94
c1ccc(N(c2ccccc2)c2ccc(-c3cccc4nc5ccccc5cc34)cc2)cc1; 390

Query: Given CN(C)c1ccc2nc3c(cc2c1)c(-c1ccccc1)nn3-c1ccccc1 , respond with its absorption maximum.
Response: 444.64

Query: Given O=C1OC(c2ccccc2)=N/C1=C\c1ccc(N(c2ccc(/C=C3\N=C(c4ccccc4)OC3=O)cc2)c2ccc(/C=C3/N=C(c4ccccc4)OC3=O)cc2)cc1 , respond with its absorption maximum.
Response: 497.5

Query: Given O=C1NC(=O)C(c2c[nH]c3ccccc23)=C1c1c[nH]c2ccccc12 , respond with its absorption maximum.
Response: 445

Query: Given CCCCCCCCC1(CCCCCCCC)c2ccccc2-c2ccc(N(c3ccc(-n4c5ccccc5c5ccccc54)cc3)c3ccc4c(c3)C(CCCCCCCC)(CCCCCCCC)c3ccccc3-4)cc21 , respond with its absorption maximum.
Response: 347

Query: Given Nc1cc2ccc3cccc4ccc(c1)c2c34 , respond with its absorption maximum.
Response: 338

Query: Given Cn1cccc1-c1cc(C#N)ccc1C#N , respond with its absorption maximum.
Response: 370

###

TEST: solvent given as SMILES
CONDITION_DETAILS: in CC#N
If the reported absorption maximum equals or exceeds 400 nm, assign criterion met. If not, assign criterion not met.

Recorded results for 8 compounds are shown here.
O=C1C=C(Nc2ccccc2)CCC1; criterion not met
F[B-]1(F)n2c(-c3cccs3)cc(-c3cccs3)c2N=C2C(c3cccs3)=CC(c3cccs3)=[N+]21; criterion met
Cn1cc(-c2nc3ccccc3nc2/C=C/N2CCCC2)c2ccccc21; criterion met
C(#Cc1ccc(-n2c3ccccc3c3ccccc32)cc1)c1ccccc1; criterion not met
CCC1=C(C)C2=C(C)c3c(C)c(-c4csc(N5CCOCC5)n4)c(C)n3[B-](F)(F)[N+]2=C1C; criterion met
F[B-]1(F)n2c(c(-c3cccs3)c3c2-c2ccccc2CC3)C=C2C(c3cccs3)=C3CCc4ccccc4C3=[N+]21; criterion met
CSc1ccc2c(c1)N(CCCN1CCN(C)CN1C)c1ccccc1S2; criterion not met
F[B-]1(F)n2c(c(Sc3ccccc3)c3c2-c2ccccc2CC3)C=C2C(Sc3ccccc3)=C3CCc4ccccc4C3=[N+]21; criterion met

Query: State whether the measured absorption maximum reaches 400 nm, counting equality as reaching it, for COc1ccc(/C=C/c2ccc(-c3nnc(-c4ccc(-c5cc6ccccc6s5)cc4)o3)cc2)cc1
Response: criterion not met

Query: State whether the measured absorption maximum reaches 400 nm, counting equality as reaching it, for c1ccc2cc(-n3cnc4ccccc43)ccc2c1
Response: criterion not met

###

TEST: solvent given as SMILES
CONDITION_DETAILS: in ClCCl
If the reported absorption maximum equals or exceeds 400 nm, assign Criterion met. If not, assign Criterion not met.

Recorded results for 8 molecules are shown here.
CC1=C(c2ccccc2)C(C)=[N+]2C1=C(c1c(-c3ccccn3)nc3ccccn13)c1c(C)c(-c3ccccc3)c(C)n1[B-]2(F)F; Criterion met
Cc1cc(O)c(C(=O)/C=C/c2ccccc2Cl)c(=O)o1; Criterion not met
CC1(C)c2ccccc2N(c2ccc3c(c2)S(=O)(=O)c2cc(N4c5ccccc5C(C)(C)c5ccccc54)ccc2C3(C)C)c2ccccc21; Criterion not met
COc1ccc(-c2cc3c(s2)c(C(=O)c2ccccc2)cc(=O)n3Cc2ccccc2)cc1; Criterion met
CC1=C(c2ccccc2)Oc2cc3nc4ccccc4nc3c3cccc1c23; Criterion met
CCCN1c2ccc(C#CC3=C4C=CC=[N+]4[B-](F)(F)n4cccc43)cc2Sc2cc(C#CC3=C4C=CC=[N+]4[B-](F)(F)n4cccc43)ccc21; Criterion met
CC1=CC(C)=[N+]2C1=Cc1cccn1[B-]2(F)F; Criterion met
CCC/N=C/c1cc2ccc(N(C)C)cc2cc1OC; Criterion not met

Query: State whether the measured absorption maximum reaches 400 nm, counting equality as reaching it, for O=C(O)c1ccc2ccc3cccc4ccc1c2c34
Response: Criterion not met

###

TEST: solvent given as SMILES
CONDITION_DETAILS: in ClCCl
Below is a list of entries, each paired with its recorded absorption maximum value.
Answer as a quantity: numeral, then unit.

Example entries and their recorded answers appear below.
CCn1c2ccccc2c2cc(C#Cc3cc(C#Cc4ccc5c(c4)c4ccccc4n5CC)nc(N4CCCCC4)n3)ccc21; 397 nm
CC1(C)C2=C(c3ccccc31)S(=O)(=O)c1ccccc12; 355 nm
CN(C)c1ccc(-c2c(/C=C3/C=Cc4ccccc4N3C)c(=O)c2=O)cc1; 509 nm
CCCCCCOc1ccc2c(c1)-c1cc3c(cc1[Si]2(C)C)-c1ccccc1[Si]3(C)C; 327 nm
CCCCNc1ccc2n1[B-](F)(F)[N+]1=CC(/C=C/C(=O)OC(C)(C)C)=CC1=C2c1c(C)cc(C)cc1C; 499 nm
CCCCCCCCCCCCCCCCCCN1C(=O)c2cccc3c(OCCN(C)C)ccc(c23)C1=O; 363 nm
CCc1cccc(CC)c1-c1c2ccccc2c(-c2c(CC)cccc2CC)c2cc3ccccc3cc12; 495 nm

Query: Given CCCCN(CCCC)c1ccc(C#Cc2cc(C#Cc3ccc(N(CCCC)CCCC)cc3)c(C#Cc3ccc([N+](=O)[O-])cc3)cc2C#Cc2ccc([N+](=O)[O-])cc2)cc1 , respond with its absorption maximum.
Response: 426 nm

###

TEST: solvent given as SMILES
CONDITION_DETAILS: in Cc1ccccc1
VALUE_KIND: absorption maximum (nm)
The reply should contain only the number, in nm.

Example entries and their recorded answers appear below.
CC1(C)c2ccccc2N(c2ccc3c(c2)c2ccccc2c2nc4ccccc4nc32)c2ccccc21; 382
COc1ccc(C2=C3C(C)=CC(C=Cc4ccc(C(=O)OC5C[C@H]6CCC5(C)C6(C)C)cc4)=[N+]3[B-](F)(F)n3c(C)cc(C)c32)cc1 (stereo not given in full); 568

Query: Given c1cc2c([nH]c3c4[nH]c5sccc5c4c4nsnc4c23)s1 , respond with its absorption maximum.
Response: 411

Query: Given O=c1oc2ccccc2cc1-c1nc2ccccc2o1 , respond with its absorption maximum.
Response: 360

Query: Given O=P1(c2ccccc2)C(c2cc(C(F)(F)F)cc(C(F)(F)F)c2)=Cc2c3ccc4cccc5ccc(c6cc(-c7ccccc7)n1c26)c3c45 (stereo not given) , respond with its absorption maximum.
Response: 453

Query: Given CCCCCCCCC1(CCCCCCCC)c2cc(C=O)ccc2-c2ccc(/C=C/c3ccc(N(c4ccccc4)c4ccccc4)cc3)cc21 , respond with its absorption maximum.
Response: 411

Query: Given COc1c2ccccc2c(-c2ccccc2)c2ccccc12 , respond with its absorption maximum.
Response: 378

Query: Given CC[n+]1c(/C=C/c2c([O-])ccc3ccc(=O)oc23)sc2ccccc21 , respond with its absorption maximum.
Response: 623.57

Query: Given C#CCNC1=C2C=CC=[N+]2[B-](F)(F)n2cccc21 , respond with its absorption maximum.
Response: 421

Query: Given CCN(CC)c1ccc2cc(/C=C(\C#N)c3nc4ccccc4o3)c(=O)oc2c1 , respond with its absorption maximum.
Response: 500

###

TEST: solvent given as SMILES
CONDITION_DETAILS: in ClCCl
If the reported absorption maximum equals or exceeds 400 nm, assign 1 (yes). If not, assign 0 (no).

Recorded results for 5 molecules are shown here.
O=C1OC(=O)c2ccc(N(c3ccccc3)c3c4ccccc4cc4ccccc34)c3cccc1c23; 1 (yes)
CCCCCCCCn1cc(-n2c(-c3cc(-c4nc5ccc(C)cc5n4-c4cn(CCCCCCCC)nn4)cc(-c4nc5ccc(C)cc5n4-c4cn(CCCCCCCC)nn4)c3)nc3ccc(C)cc32)nn1; 0 (no)
CCCCCCCCCCCCn1c(-c2cc(-c3nc4ccc(C)cc4n3CCCCCCCCCCCC)cc(-c3nc4ccc(C)cc4n3CCCCCCCCCCCC)c2)nc2ccc(C)cc21; 0 (no)
S=P1(c2ccccc2)C(c2ccccc2)=Cc2cc3ccccc3cc21 (stereo not drawn); 0 (no)
Cc1cc(-c2nc3c4ccccc4c4ccccc4c3n2-c2ccc(C(C)(C)C)cc2)ccc1-c1ccc(-c2c(-c3ccccc3)nc3ccccn23)cc1; 0 (no)

Query: State whether the measured absorption maximum reaches 400 nm, counting equality as reaching it, for CC(=O)c1cc(=O)n(C)c2cc(-c3ccc(N(C)C)cc3)sc12
Response: 1 (yes)

Query: State whether the measured absorption maximum reaches 400 nm, counting equality as reaching it, for CCCCCCCCCCCCOc1cc2cc(N(C)C)ccc2cc1C#N
Response: 0 (no)
